Read-out: Tumor necrosis factor receptor superfamily member 6 (Homo sapiens) (UniProt P25445)
test.protocol: LTEA_HepaRG_FAS: Life Technologies and Expression Analysis (LTEA) Assay for Fas cell surface death receptor (FAS) using HepaRG (AID 2283447)
experimental.conditions: mRNA level, 48 h; actives raise or lower the signal
Method: LTEA_HepaRG is a cell based, multiplexed-readout assay that uses HepaRG, a human liver cell line, with measurements taken at 48 hours after chemical dosing on a 96-well plate.LTEA_HepaRG_FAS is one of 102 assay component(s) measured in the LTEA HepaRG cell culture assay. It is a marker of Cell proliferation, survival, death.Data from the assay component LTEA_HepaRG_FAS was analyzed into 1 endpoint. […]
Active and inactive are the calls of the source. The calls were made as follows: active = hit-call score of the fitted dose curve at least 0.9, where 1 is the maximum; inactive = score below 0.9.
// classify into active, inactive

Consider the following illustrative entries.
compound: C=CCCCCCCCCC(=O)O
label.class: inactive

compound: CCCCCCCCO
label.class: inactive

compound: CCCN(C1CCN(C(=O)C2CCNCC2)CC1)[C@@H]1CCc2ccc(OC)cc2C1
label.class: inactive

compound: CCCCC(CC)COC(=O)CCCCCCCCC(=O)OCC(CC)CCCC (centres undefined)
label.class: inactive

compound: CC(=O)c1ccc2c(c1)[C@H](NC(=O)c1ccc(F)cc1)[C@@H](O)C(C)(C)O2
label.class: inactive

// query Outcome? "Cc1ccc(C)c(O)c1"
// result inactive

// query Outcome? "C1=CCCC=CCCC=CCC1"
// result inactive

// query Outcome? "CCOc1cccc(-n2cc(C(=O)N3CCN(c4cc(C(=O)O)c5ccccc5c4)CC3)nc2-c2ccc(C)cc2)c1"
// result inactive

// query Outcome? "O=C(OC[C@H]1O[C@@H](OC(=O)c2cc(O)c(O)c(OC(=O)c3cc(O)c(O)c(O)c3)c2)[C@H](OC(=O)c2cc(O)c(O)c(OC(=O)c3cc(O)c(O)c(O)c3)c2)[C@@H](OC(=O)c2cc(O)c(O)c(OC(=O)c3cc(O)c(O)c(O)c3)c2)[C@@H]1OC(=O)c1cc(O)c(O)c(OC(=O)c2cc(O)c(O)c(O)c2)c1)c1cc(O)c(O)c(OC(=O)c2cc(O)c(O)c(O)c2)c1"
// result active

----------
test.protocol: Tanguay_ZF_120hpf_NC_legacy: (Legacy) Oregon State University Tanguay Lab 120 Hour Post-fertilization zebrafish Assay for Notochord and Tail Malformation (AID 2283656)
Experimental: Tanguay_ZF_120hpf_legacy is a whole embryo, multiplexed endpoint assay using zebrafish larvae exposed for 120 hours post fertilization on a 96-well plate.Tanguay_ZF_120hpf_NC_legacy is one of one assay component(s) measured or calculated from the Tanguay_ZF_120hpf_legacy assay. […] This assay endpoint, Tanguay_ZF_120hpf_NC_legacy, was analyzed in the positive analysis fitting direction relative to DMSO as the negative control and baseline of activity. […]
Inconclusive results are not listed. Activity calls are given as the source filed them. The calls were made as follows: active = hit-call score of the fitted dose curve at least 0.9, where 1 is the maximum; inconclusive = response in the unintended direction; inactive = score below 0.9.
// classify into active, inactive

Consider the following illustrative entries.
compound: C=CC(=C)CCC=C(C)C
label.class: inactive
--
compound: O=c1n(CC2CO2)c(=O)n(CC2CO2)c(=O)n1CC1CO1 (stereo not given)
label.class: inactive
--
compound: CC(C)CCCCCCOC(=O)c1ccc(C(=O)OCCCCCCC(C)C)c(C(=O)OCCCCCCC(C)C)c1
label.class: inactive
--
compound: CCn1nc(Cc2ccccc2)cc1C1CCN(C[C@H]2C[C@H](N(C)[C@@H](C(=O)O)C(C)C)C[C@@H]2c2cccc(F)c2)CC1
label.class: inactive

// query Outcome? "CCCC(=O)OCC"
// result inactive
